Biological target: Rap guanine nucleotide exchange factor 3 (Homo sapiens) (UniProt O95398)
Sequence (O95398 whole entry, looked up): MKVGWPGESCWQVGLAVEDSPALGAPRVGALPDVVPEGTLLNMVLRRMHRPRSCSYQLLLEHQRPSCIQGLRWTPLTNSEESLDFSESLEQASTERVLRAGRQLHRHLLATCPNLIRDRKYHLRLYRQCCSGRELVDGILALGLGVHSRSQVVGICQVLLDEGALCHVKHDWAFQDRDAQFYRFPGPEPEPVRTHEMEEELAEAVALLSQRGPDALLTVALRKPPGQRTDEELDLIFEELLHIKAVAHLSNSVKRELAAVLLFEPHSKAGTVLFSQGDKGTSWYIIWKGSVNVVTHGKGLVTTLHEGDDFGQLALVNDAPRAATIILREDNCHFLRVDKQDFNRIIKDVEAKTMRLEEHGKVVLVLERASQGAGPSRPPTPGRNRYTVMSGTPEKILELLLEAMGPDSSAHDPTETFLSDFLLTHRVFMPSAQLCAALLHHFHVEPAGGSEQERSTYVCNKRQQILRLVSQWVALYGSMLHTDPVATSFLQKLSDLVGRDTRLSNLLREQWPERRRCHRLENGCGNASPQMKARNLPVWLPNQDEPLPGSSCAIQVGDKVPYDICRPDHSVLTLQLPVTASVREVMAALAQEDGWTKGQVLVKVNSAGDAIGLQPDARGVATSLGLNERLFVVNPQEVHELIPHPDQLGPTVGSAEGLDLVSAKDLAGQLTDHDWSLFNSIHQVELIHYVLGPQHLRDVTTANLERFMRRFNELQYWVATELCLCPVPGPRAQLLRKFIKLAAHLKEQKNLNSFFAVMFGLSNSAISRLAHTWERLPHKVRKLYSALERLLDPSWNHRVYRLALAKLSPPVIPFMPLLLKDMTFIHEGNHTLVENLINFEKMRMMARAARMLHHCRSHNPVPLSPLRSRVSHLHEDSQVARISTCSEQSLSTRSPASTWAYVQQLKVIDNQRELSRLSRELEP
Experiment: Counterscreen qHTS for antagonist of cAMP-regulated guanine nucleotide exchange factor 3 (EPAC1) (AID 1645888);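 also: fluorescence loss as bound BODIPY-GDP is released from Rap1B; % of control where 0% means no effect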
Details: Rap1B-BODIPY-GDP nucleotide exchange, fluorescence; series mostly up to 154 µM
Records with an inconclusive call do not appear. Calls of active or inactive are those of the source. Calls follow the shape of the dose curve; as a rule, active = well fitted inhibition curve with a large enough effect; inconclusive = small, poorly fitted or top-dose-only effect; inactive = no such curve, though single readings can be large or run the other way.
EXPERIMENTAL READOUT: activity change, negative = inhibition

Example results:
COc1cc(/C=N/NC(=O)c2ccccn2)ccc1OC(=O)c1ccc(Br)cc1 = inactive
CCOc1cccc(CC(=O)NCc2ccc3c(c2)CCN3C(C)=O)c1OCC = inactive
O=C(CSc1nc2c([nH]c3ccccc32)c(=O)n1-c1ccccc1F)Nc1cccc(Cl)c1 = inactive
O=C1CNC(=O)c2c(nc3n2CCC3)N1 = inactive
Cc1ccccc1C(=O)NCC(=O)N1CCN(c2ccccn2)CC1 = -4.53% [at 30.8 µM] (inactive)

### Prompt Respond only with activity change, negative = inhibition recorded for CC1CN(S(=O)(=O)c2cccc(C(=O)Nc3ccccc3N3CCOCC3)c2)CC(C)O1 (stereo unspecified)
### Response -5.5% [at 30.8 µM] (inactive)

### Prompt Look up activity change, negative = inhibition of "Cc1occc1-c1nnc(SCC(=O)Nc2c(F)cccc2F)n1C" and report it.
### Response inactive

### Prompt // Input: "Clc1ccc(CSc2nncn3c2cc2occc23)cc1" . Output its activity change, negative = inhibition only.
### Response inactive

### Prompt Using known records, supply activity change, negative = inhibition for CC1CC1C(=O)OCC(=O)NNC(=O)COc1ccc(Br)cc1 (stereo unspecified)
### Response 26.9% [at 30.8 µM] (inactive)

### Prompt Tell me measured activity change, negative = inhibition for CCC1CCCCN1CCCNC(=O)c1ccc(CS(=O)(=O)Cc2ccccc2F)o1 (stereo unspecified) please.
### Response inactive

### Prompt Please report activity change, negative = inhibition for the following molecule: "O=C(OCc1c(-c2ccccc2)ncc2ccccc12)c1ccco1"
### Response inactive

---

Tested on: CP286
Assay: qHTS profiling for inhibitors of Plasmodium falciparum proliferation (AID 504749); also: nearly all actives have a fitted effect of over 60% in size
Conditions: P. falciparum in erythrocytes, SYBR Green DNA, 72 h; series mostly up to 12.8 µM
Records with an inconclusive call do not appear. The source made the active and inactive calls. The call rests on the fitted dose curve; in most records, active means well fitted inhibition curve with a large enough effect; inconclusive means small, poorly fitted or top-dose-only effect; inactive means flat fitted curve, though single readings scatter.
One label from this list, please: active, inactive

Use the examples below as a reference point.
CN[C@H]1[C@H](O)[C@@H](O[C@@H]2[C@H](O)[C@@H](O[C@H]3OC(CN)=CC[C@H]3N)[C@@H](N)C[C@H]2N)OC[C@@]1(C)O = inactive
CC[C@H](CO)NCCN[C@@H](CC)CO = inactive
CC(=C(CCOP(=O)(O)O)SC(=O)c1ccccc1)N(C=O)Cc1cnc(C)nc1N = inactive

### Prompt GET /call?item= "CCOC(=O)O[C@]1(C(=O)COC(=O)CC)CC[C@@H]2[C@@H]3CCC4=CC(=O)C=C[C@@]4(C)[C@H]3[C@H](O)C[C@]21C" returns the recorded outcome of this test.
### Response inactive

### Prompt What did this assay record as the result for "CC(=O)C[C@H](c1ccc([N+](=O)[O-])cc1)c1c(O)c2ccccc2oc1=O" ?
### Response inactive

### Prompt Identify the outcome logged in this assay for the compound shown: "Cc1cccc(C)c1NC(=O)[C@H](C)N"
### Response inactive

---

Molecular target: Rap guanine nucleotide exchange factor 3 (Homo sapiens) (UniProt O95398)
Test: Confirmatory qHTS for agonist of cAMP-regulated guanine nucleotide exchange factor 3 (EPAC1) (AID 1645881);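 also: EPAC1 catalysed release of BODIPY-GDP from Rap1B seen as fluorescence loss; 100% = effect of cAMP agonist control; nearly all actives have a fitted effect of over 75% in size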
Details: EPAC1 Rap1B BODIPY-GDP exchange fluorescence; series mostly up to 154 µM
Records with an inconclusive call do not appear. The source made the active and inactive calls. The call rests on the fitted dose curve; in most records, active means well fitted activation curve with a large enough effect; inconclusive means small, poorly fitted or top-dose-only effect; inactive means no such curve, though single readings can be large or run the other way.
Field 'call' accepts yes (1) (active), no (0) (inactive)

### Prompt For "CCOC(=O)Cn1c(=O)oc2cc(S(=O)(=O)Nc3c(C)cc(C)cc3C)ccc21" , which call appears in the assay record?
### Response no (0)

### Prompt Assay outcome for CC1(C(=O)NS(=O)(=O)c2cccc(Cl)c2)CCN1C(=O)C1(c2ccc(Cl)cc2)CC1 (configuration not stated) : what was it?
### Response no (0)

### Prompt Hi, do you know how "COc1ccc(S(=O)(=O)CC(=O)c2cc3cc(Br)ccc3oc2=O)cc1" came out in this test?
### Response no (0)

### Prompt Kindly provide the recorded test outcome for the following molecule: "CC1(C)CC(=O)C=C(c2ccc(F)cc2OCc2ccccc2)C1"
### Response no (0)

### Prompt What did this assay record as the result for "CCc1cccc2c(C(=O)COC(=O)c3nccnc3N)c[nH]c12" ?
### Response no (0)

### Prompt Query: recorded result category for "CC(C)(C)C(=O)Nc1ccc2nc(SCC(=O)N3CCc4ccccc43)sc2c1" in this test
### Response no (0)

### Prompt What is the recorded call for this molecule in the test? "Cc1ccc(C(=O)c2cn(Cc3ccccc3)c3nc(C)ccc3c2=O)cc1"
### Response no (0)

### Prompt Field: outcome | Entry: O=C1Nc2ccccc2SC1c1ccccc1 (configuration not stated)
### Response no (0)

### Prompt Each molecule tested received a call. Report the one for "CCN(CC)c1ccc(Nc2nc(-c3cccnc3)cs2)cc1" .
### Response no (0)

---

The following compounds are shown together with reported max response values.
Assay: qHTS Assay for Lipid Storage Modulators (AID 1519)
Details: Drosophila S3 cells, BODIPY lipid droplet/cell ratio, laser cytometry; measured here: lipid channel max response; cells loaded with oleic acid
Results filed as inconclusive are left out.
Could you write the number and then its unit?

Worked examples, 5 compounds total:
COc1cc2cc3c4cc(OC)c(OC)cc4cc[n+]3c(C)c2cc1OC = -9.88%
NCC1O[C@@H](OC2C(N)C[C@H](N)[C@@H](O[C@H]3OC(CO)C(O)C(N)C3O)C2O)C(O)C(O)C1O (stereo partly drawn) = 29.6%
CC[C@H](C(=O)[C@H](C)[C@H](O)[C@H](C)CCc1ccc(C)c(O)c1C(=O)O)[C@H]1O[C@](CC)([C@@H]2CC[C@@](O)(CC)[C@H](C)O2)C[C@H]1C = -85.1%
Cc1c(C)c2c(c(C)c1O)CC[C@@](C)(C(=O)O)O2 = -17.6%
CC(C)(C)NC[C@@H](O)COc1ccccc1C1CCCC1 = -12.5%

### Prompt For the compound "NC[C@@H]1O[C@@H](O[C@H]2[C@H](O)[C@H](O[C@@H]3O[C@H](CO)[C@@H](O)[C@H](N)[C@@H]3O)[C@@H](N)C[C@H]2N)[C@H](N)C[C@@H]1O" , report max response.
### Response -6.77%

### Prompt // Input: CCCC(NC(C)C(=O)N1C(C(=O)O)CC2CCCCC21)C(=O)OCC (stereo not drawn) . Output its max response only.
### Response 11.7%

### Prompt Find the measured max response of CCC(/C=C/C(C)C1CCC2C3CCC4=CC(=O)CC[C@@]4(C)C3CC[C@@]12C)C(C)C (stereo partly drawn) and report it.
### Response 16.6%

---

System: CP335
Test: qHTS profiling for inhibitors of Plasmodium falciparum proliferation (AID 504749); also: nearly all actives have a fitted effect of over 60% in size
Details: P. falciparum in erythrocytes, SYBR Green DNA, 72 h; series mostly up to 12.8 µM
Inconclusive results are not listed. Activity calls are given as the source filed them. Calls come from the whole dose curve; as a rule, active = well fitted inhibition curve with a large enough effect; inconclusive = small, poorly fitted or top-dose-only effect; inactive = flat fitted curve, though single readings scatter.
Pick one and only one: 1.0 for active, 0.0 for inactive

Illustrative cases are given below, each with its answer.
CCC[C@@H]1O[C@@H]2C[C@@H]3[C@H]4CCC5=CC(=O)C=C[C@@]5(C)[C@H]4[C@H](O)C[C@@]3(C)[C@@]2(C(=O)CO)O1 = 1.0
CC(=C(CCOP(=O)(O)O)SC(=O)c1ccccc1)N(C=O)Cc1cnc(C)nc1N = 0.0
COc1ccc(-c2cc(=O)c3c(O)cc(O[C@H]4OC(COC5OC(C)C(O)C(O)[C@H]5O)C(O)C(O)C4O)cc3o2)cc1O (stereo not given in full) = 0.0
CC(=O)N[C@H](CC(C)C)C(=O)O = 0.0

Would you kindly look at the next entry?
### Prompt Hi team, can someone confirm the assay call for "CCOC(=O)O[C@]1(C(=O)COC(=O)CC)CC[C@@H]2[C@@H]3CCC4=CC(=O)C=C[C@@]4(C)[C@H]3[C@H](O)C[C@]21C" ?
### Response 0.0

---

Molecular target: Rap guanine nucleotide exchange factor 4 (Homo sapiens)
Test: Confirmatory qHTS for antagonist of cAMP-regulated guanine nucleotide exchange factor 4 (EPAC2) (AID 1645885); also: nearly all actives have a fitted effect of over 25% in size
Conditions: EPAC2 Rap1B-BODIPY-GDP exchange fluorescence, biochemical; series mostly up to 12.7 µM
Results filed as inconclusive are left out. Calls of active or inactive are those of the source. Calls follow the shape of the dose curve; as a rule, active = well fitted inhibition curve with a large enough effect; inconclusive = small, poorly fitted or top-dose-only effect; inactive = no such curve, though single readings can be large or run the other way.
Write down one outcome, taken from 1 (active), 0 (inactive)

Worked set:
COc1ccc2c(c1)c1nnc(SCC(=O)NC3CC3)nc1n2C = 1
Cc1ccc2nc(-c3ccccc3)c(Cc3ccccc3C(F)(F)F)n2c1 = 0
OC(c1ccc(Cl)c(Cl)c1)c1ncc(-c2ccc(Cl)cc2)[nH]1 (stereo unspecified) = 0
COc1ccc(C(C#N)N2N=C(C)CC2c2ccccc2)cc1 (stereo unspecified) = 1

### Prompt How was "COc1ccc(OC)c(/C=C2\SC(=S)N(NS(=O)(=O)c3ccccc3)C2=O)c1" classified in this test?
### Response 1

### Prompt // outcome(item) with item = "Oc1ccc(Br)cc1C=Nc1cccn2cc(-c3ccccc3)nc12"
### Response 1
